experimental_target: UniProt Q96RI1
test_protocol: In Vitro FXR Assay (TK): TK-ECRE-luc reporter in transfected CV-1 cells
applied_conditions: CV-1 cells transfected with hFXR, hRXR, pCMX-YFP, 18 hrs incubation, luminescence
pEC50: −log10 of the molar value.
recorded_metric: pEC50

# example entries with known answers
| compound | pEC50 |
| --- | --- |
| COc1c(C)cc(C23CCC(CN(c4cncc(-c5cnn(C(C)(C)C)c5)n4)C(=O)[C@H]4CC[C@H](OC(=O)N5CC(O)C5)CC4)(CC2)CC3)cc1C | 6.00 to 8.00 |
| COc1ccc(C23CCC(CN(c4cc(-c5cnc(C(C)(C)C)s5)ccn4)C(=O)[C@H]4CC[C@H](OC(=O)N5CCC(N(C)C)C5)CC4)(CC2)CC3)cc1C (stereo partly drawn) | 6.00 to 8.00 |

Switching to the query record.
Query string: I'd like to know its pEC50. The compound in question is COc1ccc([C@H]2CC[C@H](CN(c3cc(-c4cnc(C(C)(C)C)s4)ccn3)C(=O)[C@H]3CC[C@H](OC(=O)N4CC(O)C4(C)C)CC3)CC2)cc1C (stereo partly drawn)
Result string: 6.00 to 8.00

* * *

experimental_target: hFXR (Homo sapiens, UniProt Q96RI1)
Construct: expressed in transfected cells; host or cells: CV-1 cells
Sequence (Q96RI1 whole entry): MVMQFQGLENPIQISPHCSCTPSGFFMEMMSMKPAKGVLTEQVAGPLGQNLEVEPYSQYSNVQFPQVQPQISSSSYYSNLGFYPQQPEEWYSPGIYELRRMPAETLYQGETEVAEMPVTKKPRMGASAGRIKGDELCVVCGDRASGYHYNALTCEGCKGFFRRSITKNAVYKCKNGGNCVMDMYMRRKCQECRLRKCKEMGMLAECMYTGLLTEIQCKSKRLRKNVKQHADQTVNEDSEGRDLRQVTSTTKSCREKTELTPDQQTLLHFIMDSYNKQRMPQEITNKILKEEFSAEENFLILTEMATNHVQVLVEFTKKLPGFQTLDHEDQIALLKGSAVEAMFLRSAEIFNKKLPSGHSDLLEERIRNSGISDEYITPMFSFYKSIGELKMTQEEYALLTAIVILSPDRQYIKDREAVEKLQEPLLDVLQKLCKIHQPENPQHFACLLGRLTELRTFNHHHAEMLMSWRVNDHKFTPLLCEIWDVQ
Sequence (P19793 whole entry partner): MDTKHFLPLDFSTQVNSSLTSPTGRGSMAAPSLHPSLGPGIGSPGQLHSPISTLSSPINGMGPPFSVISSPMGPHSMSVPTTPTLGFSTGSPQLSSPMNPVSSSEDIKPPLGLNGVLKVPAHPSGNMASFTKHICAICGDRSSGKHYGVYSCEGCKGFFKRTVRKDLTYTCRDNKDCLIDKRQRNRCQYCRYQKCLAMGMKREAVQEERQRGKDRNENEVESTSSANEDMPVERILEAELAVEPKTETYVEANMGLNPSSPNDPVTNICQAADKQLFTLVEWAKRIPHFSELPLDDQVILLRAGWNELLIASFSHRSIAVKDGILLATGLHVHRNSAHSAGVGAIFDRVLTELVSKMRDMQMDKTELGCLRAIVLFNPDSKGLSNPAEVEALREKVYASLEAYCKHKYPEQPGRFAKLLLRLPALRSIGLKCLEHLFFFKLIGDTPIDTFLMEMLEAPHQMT
test_protocol: In Vitro FXR Assay (TK): TK-ECRE-luc reporter in transfected CV-1 cells
Format: cell-based
applied_conditions: CV-1 cells transfected with hFXR, hRXR, pCMX-YFP, 18 hrs incubation, luminescence
Measured EC50 of individual entries

Below, each entry is followed by its recorded EC50 result.
| compound | experimental_target | EC50 |
| --- | --- | --- |
| COc1ccc(C23CCC(CN(c4cc(-c5cnn(C(C)(C)C)c5)ccn4)C(=O)[C@H]4CC[C@H](OC(=O)NC5CCS(=O)(=O)CC5)CC4)(CC2)CC3)cc1C [Compound 2.39] | hFXR (Homo sapiens, UniProt Q96RI1) | 10 to 1000 nM |
| COc1ccc(C23CCC(CN(c4cc(-c5cnn(C(C)(C)C)c5)ccn4)C(=O)[C@H]4CC[C@H](OC(=O)NCCCO)CC4)(CC2)CC3)cc1C [Compound 2.31] | hFXR (Homo sapiens, UniProt Q96RI1) | ≤ 10 nM |
| COc1ccc(C23CCC(CN(c4cc(-c5coc(C(C)(C)C)n5)ccn4)C(=O)[C@H]4CC[C@H](OC(=O)NCCO)CC4)(CC2)CC3)cc1C [Compound 2.19] | hFXR (Homo sapiens, UniProt Q96RI1) | ≤ 10 nM |
| COc1ccc([C@]23CC[C@@](CN(c4cc(-c5cnn(C(C)(C)C)c5)ccn4)C(=O)[C@H]4CC[C@H](OC(=O)N5CC(CO)C5)CC4)(CC2)CC3)cc1C [Compound 3.02] | hFXR (Homo sapiens, UniProt Q96RI1) | ≤ 10 nM |
| COc1c(C)cc(C23CCC(CN(c4cc(-c5cnn(C(C)(C)C)c5)ccn4)C(=O)[C@H]4CC[C@H](OC(=O)N5CC(O)C5)CC4)(CC2)CC3)cc1C [Compound 3.04] | hFXR (Homo sapiens, UniProt Q96RI1) | ≤ 10 nM |
| COc1ccc(C23CCC(CN(c4cc(-c5cnn(C(C)(C)C)c5)ccn4)C(=O)[C@H]4CC[C@H](OC(=O)N5CC(OCCO)C5)CC4)(CC2)CC3)cc1C [Compound 2.25] | hFXR (Homo sapiens, UniProt Q96RI1) | ≤ 10 nM |

Query string: Could you tell me which EC50 is on file for COc1ccc([C@H]2CC[C@H](CN(c3cc(-c4coc(C(C)(C)C)n4)ccn3)C(=O)[C@H]3CC[C@H](OC(=O)N4CC(O)C4(C)C)CC3)CC2)cc1C (some centres unmarked) [Compound 1.05] ?
Result string: 10 to 1000 nM

Query string: Query (compound): CCC(C)(CC)n1cc(-c2ccnc(N(CC34CCC(c5ccc(OC)c(C)c5)(CC3)CC4)C(=O)[C@H]3CC[C@H](OC(=O)N4CCC(O)CC4)CC3)c2)cn1 [Compound 4.06] ; field requested: EC50
Result string: ≤ 10 nM

Query string: Endpoint output: EC50 of COc1ccc(C23CCC(CN(c4cc(-c5cnc(C(C)(C)C)s5)ccn4)C(=O)[C@H]4CC[C@H](OC(=O)N5CC(CO)C5)CC4)(CC2)CC3)cc1C [Compound 3.08] . Value?
Result string: ≤ 10 nM

Query string: Quick one: EC50 of COc1ccc(C23CCC(CN(c4cc(-c5cnn(C(C)(C)C)c5)ccn4)C(=O)[C@H]4CC[C@H](OC(=O)NC5CC[S+]([O-])CC5)CC4)(CC2)CC3)cc1C (some centres unmarked) [Compound 2.38] ?
Result string: 10 to 1000 nM

Query string: Any idea what its EC50 is? The compound is COc1ccc([C@H]2CC[C@H](CN(c3cc(-c4cnc(C(C)(C)C)s4)ccn3)C(=O)[C@H]3CC[C@H](OC(=O)N4CC(O)C4)CC3)CC2)cc1C [Compound 1.01]
Result string: 10 to 1000 nM
